Taken from PubChem BioAssay.

# experimentalProtocol: 384-well plate pilot, post-Golgi transport modulator project, inhibition of yeast transport mutant growth (AID 636); note: test concentration not given here
# conditionInfo: absorbance 615 nm, about 18 h, hits give high values
reportedEndpoint: inhibition (%)
Answers are plain numbers, in %.

Would you please look over these solved cases?
CC1CC(C)CN(CCCNC(=O)COc2cc(=O)n(C)c3ccccc23)C1 (configuration not stated)
-3.73
Cc1cc(/C=N/n2cnnc2)c(C)n1-c1ccc(Cl)cc1Cl
-5.54
Cc1nc(C)c(C(=O)C2=C(O)C(=O)N(CCN3CCOCC3)C2c2cccnc2)s1 (configuration not stated)
-3.95

Field: inhibition. Fill in for each record below.
1. COc1ccc(Cn2nnnc2C(c2ccccc2OC)N2CCC(C(N)=O)CC2)cc1 (configuration not stated)
2. COc1ccc(-c2cc(C(F)(F)F)n3nc(C(=O)N4CCOCC4)nc3n2)cc1
3. CCN(C(=O)COC(=O)c1cc(C)n(-c2ccc(F)cc2)c1C)C1CCS(=O)(=O)C1 (configuration not stated)
4. O=C(CCC(=O)c1cccs1)NCc1ccccc1
5. Cc1cc(C)c2c(n1)nn1c(N3CCOCC3)cc(C)nc21
6. Cc1ccccc1S(=O)(=O)Cc1ccc(C(=O)NCc2cccnc2)o1
7. Cc1ccc(OC(=O)CCc2c(C)nc3ncnn3c2C)cc1

[-5.73, -0.64, -3.47, -3.64, -4.86, -1.84, 3.29]

Field: inhibition. Fill in for each record below.
1. Cc1ccc(OCC(O)Cn2c(=N)n(CCN3CCCCC3)c3ccccc32)cc1 (configuration not stated)
2. Cc1cc(C)cc(NC(=O)N2CCC(c3nc4ccccc4o3)CC2)c1
3. Cc1cc(C(=O)O)ccc1-n1c(C)ccc1C
4. COc1cccc(OCc2nc3c4cnn(-c5ccccc5)c4ncn3n2)c1
5. CCCN1C2=C(C(=O)CCC2)C(c2ccc(O)c(Br)c2)C2=C1CCCC2=O
6. Cc1oc2c(CN3CCCC3)c(O)ccc2c(=O)c1-c1ccccc1
7. CC(=O)N1CCc2cc(S(=O)(=O)NC(C(=O)NCc3ccccc3)C(C)C)ccc21 (configuration not stated)
8. CCOC(=O)C1CCCN(C(=O)c2cc3c(C)nc4ccccc4c3o2)C1 (configuration not stated)

-4
-4.8
1.32
-2.24
-7.11
-4.34
-2.5
-1.87

Field: inhibition. Fill in for each record below.
1. CCOC(=O)CC1(CC(=O)OCC)NC(=O)c2c(C)sc(C(=O)OCC)c2N1
2. COc1cccc(C(=O)Nc2ccc(N(C)C)cc2)c1OC
3. CCOC(=O)/C=C1\SCC(=O)N1Cc1ccc(Br)cc1
4. COc1ccc(Br)cc1CNC(=O)CCc1nc(-c2ccc(C)cc2)no1

[-1.05, -3.68, -7.67, -4.34]
